B1: TPR t1 (parent)
chain: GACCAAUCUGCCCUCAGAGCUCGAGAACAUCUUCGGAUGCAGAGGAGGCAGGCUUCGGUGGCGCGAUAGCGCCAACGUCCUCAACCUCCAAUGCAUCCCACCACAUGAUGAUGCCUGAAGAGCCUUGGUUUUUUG

Variants of: B1
Experiment: polymerase ribozyme fitness, log enrichment relative to wild type (log ratio); higher = more active; in vitro selection for triplet polymerase activity
Lab note: class by polymerase ribozyme fitness (log ratio), see b0 (below -3), b1 (-3 to below -2), b2 (-2 or more)

The following variants have reported results that may help.
A43U C56G G63A
b0
A26G C49U C64U U87A
b0
A95U A103G
b0
G52U G63U
b2
A43G C49U U59G C114U
b1
C11G U134A
b2

Input: // bin(item) where item = C15U G42A G48A C79U A105C U112A G113U C124A
Output: b0

Input: // bin(item) where item = A6G U54C A66G C80U
Output: b1
